system: Inhibin beta A chain (activin A); assay: small molecules binding activin A – biochemical, small-molecule microarray, 635 nm fluorescence scan, primary screen (AID 1107); details: INHBA, higher = more signal;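 further: mouse activin A protein probed at 4.33 µg/mL on printed slides; score merges bound-protein fluorescence near 667 nm with spot signal-to-noise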
Where composite z-score equals or exceeds 0.3, the correct label is T; where it does not, the label is F.

Incoming: # check: composite z-score of O=C1C2C=CC(C(O)c3cccs3)N(Nc3ccc([N+](=O)[O-])cc3)C2C(=O)N1c1ccccc1 (stereo not given) is greater than or equal to 0.3
Outgoing: T

Incoming: Then this compound: CN(C)CCCCNC(=O)[C@H]1C[C@H]2C(=O)NCC(=O)N2[C@H]1c1ccc(O)cc1
Outgoing: F

Incoming: Then this compound: CC(C)NC(=O)[C@@H]1c2ccccc2C(=O)N(Cc2ccccc2C(F)(F)F)[C@H]1c1ccc(CO)cc1
Outgoing: F

Incoming: Then this compound: O=C(NCc1ccccc1)[C@@H]1c2ccccc2C(=O)N(Cc2ccc(OC(F)(F)F)cc2)[C@H]1c1ccc(CO)cc1
Outgoing: F

Incoming: Then this compound: CCOC(=O)C[C@H]1[C@H](OC(=O)Cc2ccc3c(c2)OCO3)[C@@H](NC(=O)c2ccc3ccccc3n2)c2cc(OCCCO)ccc2N1C(=O)Cc1ccc(OC)cc1
Outgoing: F

* * *

Answer each item with its documented composite z-score.
system: Human papillomavirus type 1a E7 protein (residues 1-88); assay: HPV1a E7 small-molecule binders, primary screen, biochemical, small-molecule microarray, residues 1-88, 635 nm (AID 1129); settings: small-molecule microarray binding, fluorescence 635 nm; higher = more signal
Number only, no unit.

Incoming: Using the record for COC(=O)[C@@]1(Cc2ccccc2)N=C(c2ccc(OCCCO)cc2)O[C@H]1c1ccccc1CN=[N+]=[N-] , report its composite z-score.
Outgoing: 0.997

Incoming: Then this compound: CN1C(=O)[C@@H]2[C@@H](CC(COc3ccccc3)=C3[C@@H](CCc4ccccc4)OB(O)C[C@@H]32)C1=O
Outgoing: -0.211

Incoming: Then this compound: CCCN1C(=O)[C@@]2(c3ccc([N+](=O)[O-])cc3)CC(=O)N(CC34CC5CC(CC(C5)C3)C4)[C@@H]2c2ccc(CO)cc21
Outgoing: -1.01

Incoming: Then this compound: O=C(O)[C@H](Cc1ccccc1)n1cc(C2(O)CCCCC2)nn1
Outgoing: 0.357

Incoming: Then this compound: CCCC#C[Si](O[C@H](CC)c1cn(Cc2ccccc2)nn1)(C(C)C)C(C)C
Outgoing: 0.209

Incoming: Then this compound: CC(C)NC(=O)[C@@]1(C)c2ccccc2C(=O)N(Cc2ccccc2)[C@H]1c1ccc(CO)cc1
Outgoing: 0.244

Incoming: Then this compound: COc1ccc(C(=O)Nc2ccc3c(c2)[C@@]2(O[C@H](CCO)[C@@H]([Si](C)(C)c4ccc(OC)cc4)[C@@H]2C)C(=O)N3Cc2ccccc2)cc1
Outgoing: 0.989

Incoming: Then this compound: CC(C)(C)N1CC=CC23O[C@@H]4C=CCCOC(=O)C4[C@H]2C(=O)N(CCCCCCO)[C@@H]3C1=O (some centres undefined)
Outgoing: 0.11

Incoming: Then this compound: CCCCC(O)C1C=CC2C(=O)N(c3ccccc3)C(=O)C2N1Nc1ccccc1 (centres undefined)
Outgoing: 1.14

Incoming: Then this compound: O=C1[C@@H]2[C@@H](CC(COc3ccccc3)=C([C@H](O)CCc3ccccc3)[C@@H]2CO)C(=O)N1Cc1ccccc1
Outgoing: 0.332

Incoming: Then this compound: CN1C(=O)C2C(C1=O)C1C=C(c3ccc(CO)cc3)C2C(C2CC2)N1C (centres undefined)
Outgoing: -0.164

Incoming: Then this compound: CCOC(=O)C[C@H]1[C@H](OC(=O)Cc2ccc3c(c2)OCO3)[C@@H](NC(=O)Cc2ccc(OC)cc2)c2cc(OCCCO)ccc2N1C(=O)Cc1ccc(OC)cc1
Outgoing: 0.173

Incoming: Then this compound: COC(=O)[C@@]1(Cc2ccccc2)[C@H]2c3cc(C(=O)N4CCCC4)n(Cc4ccc(OC)c(OC)c4)c3C[C@H]2CN1C(=O)c1ccccc1
Outgoing: 1.27

Incoming: Then this compound: O=C1NC(=O)C2C1C=CC(C(O)c1ccc([N+](=O)[O-])cc1)N2Nc1ccccn1 (centres undefined)
Outgoing: 0.175

Incoming: Then this compound: C[N+](C)(C)CCCC[C@@H]1NC(=O)[C@@H]2C[C@H](C(=O)NCc3ccc(F)cc3)[C@H](c3ccc(O)cc3)N2C1=O
Outgoing: -0.321

Incoming: Then this compound: CC(C)(C)OC(=O)CC[C@@]1(C(=O)NCCN2CCOCC2)N=C(c2ccc(OCCCO)cc2)O[C@@H]1c1ccccc1CN=[N+]=[N-]
Outgoing: 0.372

Incoming: Then this compound: C=C(CCCC)C(=O)CC[C@@H](OC(=O)c1ccccc1-c1ccccc1C(=O)O)c1ccccc1OCCO
Outgoing: 0.421

Incoming: Then this compound: NC(=O)N1C(=O)C2C(C1=O)C1C=C(CCCO)C2C(c2ccc(CN3CCCC3)cc2)N1Cc1sc2ccccc2c1Cl (centres undefined)
Outgoing: 0.1

Incoming: Then this compound: C=C(COC)C(=O)CC[C@@H](OC(C)=O)c1ccccc1OCCO
Outgoing: 0.318

Incoming: Then this compound: O=C(NCCN1CCOCC1)[C@@H]1c2ccccc2C(=O)N(Cc2ccc(OC(F)(F)F)cc2)[C@H]1c1ccc(CO)cc1
Outgoing: 0.292

Incoming: Then this compound: Cc1ccc(N2C(=O)c3ccccc3[C@](C)(C(=O)NCCCN(C)C)[C@@H]2c2ccc(CO)cc2)nc1
Outgoing: -0.254

Incoming: Then this compound: CC(C)c1nc2cc(Br)ccc2c(=O)o1
Outgoing: 0.854

Incoming: Then this compound: CC(C)C(O)C1C=CC2C(=O)NC(=O)C2N1Nc1ccccn1 (centres undefined)
Outgoing: 0.218

Incoming: Then this compound: CC(=O)OCC1C2CC[C@H]3C(OCc4ccc(F)cc4C(F)(F)F)OC[C@]4(C)[C@H]3C2=C(CN4C(=O)OC(C)(C)C)[C@H](C)C1COC(C)=O (some centres undefined)
Outgoing: -0.267
